# interaction score values compiled below
- assay.target: T1, 4H2949-AA
- T1 chain: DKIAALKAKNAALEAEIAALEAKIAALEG
- experiment.notes: two-hybrid library CCmax;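 further: natural log of median RNA to DNA barcode read ratio; higher means stronger binding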
- test.context: mean of both orientations
// no unit string in output, number only

Before answering, review these 6 worked examples.
binder	recorded.value
DKIAALKAKIAALKAKNAALKAKNAALKG [4H2944-AA]	-1.55
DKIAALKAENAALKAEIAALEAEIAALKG [4H2754-AA]	-1.05
DEIAALEAENAALKAKIAALKAEIAALKG [4H234-AA]	1.73
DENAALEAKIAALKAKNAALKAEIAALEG [4H1401-AA]	0.393
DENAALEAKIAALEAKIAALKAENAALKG [4H1324-AA]	-1.16
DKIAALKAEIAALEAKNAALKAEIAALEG [4H2617-AA]	1.53

Data request, read-out interaction score, for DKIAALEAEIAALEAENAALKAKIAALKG [4H2078-AA]
-1.02

Just for reference, paper PMC10397247 is where these values come from.
